pIC50: −log10 of the molar value.
pIC50 data for UniProt:P27361 follow.
Sequence (P27361 whole entry, species assumed): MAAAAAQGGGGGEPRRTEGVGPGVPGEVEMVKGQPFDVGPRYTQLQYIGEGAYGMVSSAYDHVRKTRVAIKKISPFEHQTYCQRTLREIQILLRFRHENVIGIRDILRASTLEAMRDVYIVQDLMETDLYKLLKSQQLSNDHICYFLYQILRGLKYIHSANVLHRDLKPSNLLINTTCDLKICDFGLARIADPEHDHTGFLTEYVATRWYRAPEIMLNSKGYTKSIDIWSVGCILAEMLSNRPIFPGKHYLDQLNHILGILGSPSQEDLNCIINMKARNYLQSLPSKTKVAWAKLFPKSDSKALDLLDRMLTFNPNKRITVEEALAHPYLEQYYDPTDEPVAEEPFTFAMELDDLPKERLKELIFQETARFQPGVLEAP
quantity.kind: pIC50

Cc1ccncc1NC(=O)c1ccnc2[nH]c(-c3ccc(F)cc3)nc12: 4.78
Cc1ccncc1NC(=O)c1c(Br)cnc2[nH]c(-c3cccc(F)c3)nc12: 4.72

---

# target.system: p38 Mitogen-activated protein kinase (MAPK) (Homo sapiens, UniProt Q16539)
# Construct: purchased Upstate
# Sequence (Q16539 whole entry): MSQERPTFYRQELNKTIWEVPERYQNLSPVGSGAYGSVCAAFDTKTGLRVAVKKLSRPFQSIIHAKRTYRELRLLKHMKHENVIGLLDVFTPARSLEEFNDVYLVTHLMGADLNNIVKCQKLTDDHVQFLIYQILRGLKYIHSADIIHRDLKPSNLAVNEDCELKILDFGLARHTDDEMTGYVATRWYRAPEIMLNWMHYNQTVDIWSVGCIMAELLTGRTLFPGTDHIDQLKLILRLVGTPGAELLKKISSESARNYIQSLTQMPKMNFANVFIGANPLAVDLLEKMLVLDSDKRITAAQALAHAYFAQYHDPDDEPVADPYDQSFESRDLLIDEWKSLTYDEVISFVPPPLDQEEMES
# protocol.description: p38 MAPK enzyme inhibition (histone H1, 32P-ATP)
# Type: biochemical
# reported.conditions: p38 MAPK (recombinant p38a)
quantity.kind: IC50 (µM)

P = Cc1ccncc1NC(=O)c1ccnc2[nH]c(-c3cccc(F)c3)nc12
Q = CCSc1ccncc1NC(=O)c1ccnc2[nH]c(-c3ccc(F)cc3)nc12
[in] Field: lower IC50 | Options: P / Q Write the label of whichever entry you select.
[out] P
(P: 3.25 µM, Q: 50 µM)

---

# target.system: UniProt P45983
# Sequence (P45983 whole entry, species assumed): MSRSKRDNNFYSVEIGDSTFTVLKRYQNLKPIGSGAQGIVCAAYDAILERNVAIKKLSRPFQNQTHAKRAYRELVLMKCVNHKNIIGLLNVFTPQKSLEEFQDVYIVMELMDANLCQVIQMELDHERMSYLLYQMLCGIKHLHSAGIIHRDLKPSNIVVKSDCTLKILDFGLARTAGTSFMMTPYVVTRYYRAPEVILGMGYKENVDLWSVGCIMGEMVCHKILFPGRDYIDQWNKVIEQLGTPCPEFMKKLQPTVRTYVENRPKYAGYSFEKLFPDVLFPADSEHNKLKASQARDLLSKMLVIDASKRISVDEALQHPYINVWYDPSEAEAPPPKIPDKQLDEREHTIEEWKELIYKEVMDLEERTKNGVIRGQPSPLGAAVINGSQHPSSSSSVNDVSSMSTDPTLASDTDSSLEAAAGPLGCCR
quantity.kind: IC50 (nM)

COc1ccncc1NC(=O)c1ccnc2[nH]c(-c3ccc(F)cc3)nc12 [Example 246]: 180

1 = CCSc1ccncc1NC(=O)c1ccnc2[nH]c(-c3ccc(F)cc3)nc12 [Example 320]
2 = CCOc1ccncc1NC(=O)c1ccnc2[nH]c(-c3ccc(F)cc3)nc12 [Example 287]
[in] Could you point out whether the larger IC50 belongs to 1 or to 2 ? // respond with label for picked entry
[out] 1

---

// Aurora Kinase A (Homo sapiens) IC50 records
quantity.kind: IC50 (nM)

Reference set, count: 2
CCC(C)(C)NC(=O)c1ccnc2[nH]c(-c3ccc(NCCN(C)C)cc3)nc12: 33
Cc1ccncc1NC(=O)c1ccnc2[nH]c(-c3ccc(NCCCCN(C)C)cc3)nc12: 198

1 = CCSc1ccncc1NC(=O)c1ccnc2[nH]c(-c3ccc(N4CCN(C)CC4)cc3)nc12
2 = CN(C)CCOc1ccncc1NC(=O)c1ccnc2[nH]c(-c3ccc(F)cc3)nc12
3 = CC1(C)C2CC[C@@]1(C)[C@@H](NC(=O)c1ccnc3[nH]c(-c4ccc(NCCN5CCOCC5)cc4)nc13)C2
4 = O=C(NC1C2CC3CC(C2)CC1C3)c1ccnc2[nH]c(-c3ccc(F)cc3)nc12 (stereo not shown)
[in] // smallest IC50 at index 0, largest at the end Order the labels as requested and list them.
[out] 3, 4, 1, 2

---

# target.system: CDK-2/cycline A (Homo sapiens, UniProt P24941)
# protocol.description: CDK-2 enzyme inhibition (histone H1, 32P-ATP)
pIC50: −log10 of the molar value.
quantity.kind: pIC50

CCOc1ccncc1NC(=O)c1ccnc2[nH]c(-c3ccc(F)cc3)nc12 [Example 287]: 6.92

I = CCSc1ccncc1NC(=O)c1ccnc2[nH]c(-c3ccc(F)cc3)nc12 [Example 320]
II = Cc1ccncc1NC(=O)c1ccnc2[nH]c(-c3cccc(F)c3)nc12 [Example 451]
III = CCS(=O)(=O)Nc1ccc(CCNC(=O)c2ccnc3[nH]c(-c4ccc(F)cc4)nc23)cc1 [Example 198]
[in] Rank by pIC50 (largest to smallest). List the labels according to the requested ordering.
[out] I, II, III

---

UniProt P49841: recorded IC50 for assorted molecules
Sequence (P49841 whole entry): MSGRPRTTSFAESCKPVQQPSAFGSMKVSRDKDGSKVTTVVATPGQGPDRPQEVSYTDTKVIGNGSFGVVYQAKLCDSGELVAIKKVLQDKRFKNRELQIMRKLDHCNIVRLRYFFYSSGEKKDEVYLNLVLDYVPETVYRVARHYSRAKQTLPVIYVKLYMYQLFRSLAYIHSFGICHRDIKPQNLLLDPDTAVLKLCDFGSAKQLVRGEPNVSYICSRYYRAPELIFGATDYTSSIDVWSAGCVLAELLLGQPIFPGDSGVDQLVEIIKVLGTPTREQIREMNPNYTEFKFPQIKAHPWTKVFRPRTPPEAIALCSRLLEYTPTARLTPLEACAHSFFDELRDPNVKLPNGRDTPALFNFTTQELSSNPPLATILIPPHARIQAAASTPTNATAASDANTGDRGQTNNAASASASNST
quantity.kind: IC50 (nM)

Cc1ccncc1NC(=O)c1ccnc2[nH]c(-c3ccc(N4CCCC4)cc3)nc12: 12
O=C(NCCCc1ccncc1)c1ccnc2[nH]c(-c3cccs3)nc12: 52

I = CCOc1cc(C)ncc1NC(=O)c1ccnc2[nH]c(-c3ccc(F)cc3)nc12
II = CCSc1ccncc1NC(=O)c1ccnc2[nH]c(-c3ccc(F)cc3)nc12
[in] Would you let me know which has the greater IC50 value, I or II ? Answer format: the label of the selected item.
[out] II
(II: 5 nM, I: 2 nM)
